# METHOD: antimalarial activity against Dd2 strain (AID 2302);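 further: 0% = DMSO untreated growth and 100% = chloroquine plus artemisinin killed control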
# EXPERIMENTAL CONDITIONS: P. falciparum Dd2 in RBCs, LDH growth readout, 72 h; at 2 µM; stronger effect = higher value
Where growth inhibition equals or exceeds 60%, the correct label is t; where it does not, the label is f.

- O=C(Nc1ccc(-c2ccccc2)cc1)Nc1cccc(Cn2nc(Cl)c(N3CCCNCC3)cc2=O)c1: f
- CCCCNc1c(C(=O)OCC)c(C)nc2c1[nH]c1ccccc12: f
- Cc1cc(NC(=O)Nc2ccc3nc(C)oc3c2)c2cc(Cl)ccc2n1: f
- COc1ccc(NC(=O)C2c3ccccc3C(=O)N(C3CCCC3)C2c2cccs2)cc1OC (stereo not given): t
- O=C(/C=C/c1ccc(Cl)c(Cl)c1)NCCCCCN1CCCN(C(=O)Nc2cc(Cl)nc(Cl)c2)CC1: f
- CO/C(=C\C=C\c1cc2cc(Cl)c(Cl)cc2[nH]1)C(=O)NCCN1CCCCC1: t
- c1cc(CNC2Cc3ccc(-c4cccs4)cc3C2)cc(-n2ccnc2)c1 (stereo not given): t
- CO/C(=C/C=C/c1cc2cc(Cl)c(Cl)cc2[nH]1)C(=O)NC1CC(C)(C)N(C)C(C)(C)C1: t
- CCCc1ccc(-c2csc(NC(=O)c3ccc([N+](=O)[O-])o3)n2)cc1: f
- Cc1cnc2ccc(NS(=O)(=O)c3sc4ccc(Cl)cc4c3C)cc2c1N1CCNCC1: f

----------
# METHOD: antimalarial activity against Dd2 strain (AID 2302);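 further: 0% = DMSO untreated growth and 100% = chloroquine plus artemisinin killed control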
# EXPERIMENTAL CONDITIONS: P. falciparum Dd2 in RBCs, LDH growth readout, 72 h; at 2 µM; stronger effect = higher value
OBSERVABLE: growth inhibition (%)

• O=S(=O)(NCCN1CCCC1)c1ccc(-c2cccc(CNC3Cc4ccccc4C3)c2)s1 = 69
• Cc1ccc(S(=O)(=O)N2CCCN(C(=O)c3cc(-c4ccccc4)n[nH]3)CC2)cc1 = 93
• O=C(/C=C/c1ccc(Cl)cc1)NCCCCCN1CCN(C(=O)Nc2ccc(Cl)c(C(F)(F)F)c2)CC1 = 5
• CN1CCC(NCc2cccc(-c3cnc(NCc4ccccc4)nc3)c2)CC1 = 67
• O=C(CCc1cccc(O)c1)NCC(NCCCNc1cc(=O)c2ccccc2[nH]1)c1cc(Br)cc(Br)c1 (stereo not drawn) = 37
• CNC(=O)c1cnc(Nc2ccc(OCC(O)CN(C)C)cc2)nc1Nc1cccc(OC(C)C)c1 (stereo not drawn) = 100
• COCCn1ccc2c3c(N)nc(N)nc3ccc21 = 29
• Cc1nc(N=C(N)N)nc2ccc(C(C)(C)C)cc12 = 91

----------
# METHOD: inhibition of 3D7 malaria parasite growth – strain 3D7 (AID 2306);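 further: 0% = DMSO wells and 100% = chloroquine plus artemisinin control wells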
# EXPERIMENTAL CONDITIONS: P. falciparum 3D7 erythrocytic growth, LDH absorbance, 72 h; at 2 µM; stronger effect = higher value
OBSERVABLE: growth inhibition (%)

• Cc1ccc(NC(=O)c2cc(S(=O)(=O)NC(C)(C)C)ccc2C)nc1 = 86
• COc1ccc2nc(C)cc(NN=Cc3cc(OC)c(OC)cc3OC)c2c1 = 100
• O=C(N1CCN(c2ccc(C(F)(F)F)cc2[N+](=O)[O-])CC1)C(Cl)(Cl)Cl = 101
• Nc1cccc(CNCc2ccc(-c3cccc(-c4nc5ccccc5[nH]4)c3)cc2)c1 = 103
• Cc1cccn2c(=O)c3cc(C(=O)NCCc4ccccc4)c(=N)n(CCCOC(C)C)c3nc12 = 101
• Cc1cccc2[nH]c(-c3cccc(-c4ccc(NC(=O)N[C@@H]5C[C@H]5c5ccccc5)cc4)c3)nc12 = 98
• CCN(CCCN1CCCCC1)c1cc(C)nc(Nc2ccc(Oc3ccccc3)cc2)n1 = 101
• CN(C)CCn1c(=N)n(CC(O)c2ccc(Cl)c(Cl)c2)c2ccccc21 (centres undefined) = 99
• CCC(CCON1C(N)=NC(N)=NC1(C)C)c1ccc(Cl)c(Cl)c1 (centres undefined) = 94
• CC(C)C(=O)NC(c1ccc(N(C)C)cc1)c1cc(Cl)c2cccnc2c1O (centres undefined) = 87
• COc1cccc(Nc2nccc(NCC(O)c3cccc(C(F)(F)F)c3)n2)c1 (centres undefined) = 96
• CN1CCN(CCCNCc2cccc(-c3ccc(CNCCc4ccccc4)cc3)c2)CC1 = 100
• COc1ccc(-n2nc(C(=O)NCc3ccccc3OC)c3ccccc3c2=O)cc1 = 102
• O=C(NC1CCC(CCN2CCc3ccc(-c4cnccn4)cc3CC2)CC1)c1cccc(-n2cccn2)c1 (centres undefined) = 93
